Values were extracted from patent US9115092B2.

Target: mTOR kinase (Homo sapiens)
ENDPOINT NAME: IC50

Prompt: IC50 of Cc1ccc(-c2cc3nc(-c4ccc(NC(=O)Nc5ccc(C(=O)N(C)C)cc5)cc4)nc(N4CCOCC4)c3cc2F)o1 on mTOR kinase (Homo sapiens)?
Response: < 50 nM

Prompt: Now give it for CN(C)C(=O)c1ccc(NC(=O)Nc2ccc(-c3nc(N4CCOCC4)c4ccc(-c5ccc(CO)o5)cc4n3)c(F)c2)cc1 too.
Response: 50 to 200 nM

Prompt: Request: CN(C)C(=O)c1ccc(NC(=O)Nc2ccc(-c3nc(N4CCOCC4)c4ncc(-c5cccnc5)cc4n3)c(F)c2)cc1
Response: < 50 nM
